Biological target: human TRPM8 (Homo sapiens)
Assay: Menthol-induced Ca2+ influx in HEK293 cells stably expressing human TRPM8
Details: 30 microM menthol-induced Ca2+ influx, read-out: IC50 against TRPM8
pIC50: −log10 of the molar value.
Reported metric: pIC50

Inquiry: Tell me reported pIC50 for Cc1nccnc1-c1ccc(C(=O)CN2CC3(CCC(F)(F)CC3)OC2=O)cc1 [Example 7-19] , tested with human TRPM8 (Homo sapiens).
Reply text: > 6.30

Inquiry: Tell me reported pIC50 for Cc1cc(C(=O)CN2C(=O)NC3(CCC(F)(F)CC3)C2=O)c(C)n1-c1cccc(Cl)c1 [Example 3-7] , tested with human TRPM8 (Homo sapiens).
Reply text: > 7.00

Inquiry: Tell me reported pIC50 for O=C(CN1C(=O)NC2(CCC(F)(F)CC2)C1=O)c1ccc(-c2ncnc3cnccc23)cc1 [Example 6-51] , tested with human TRPM8 (Homo sapiens).
Reply text: > 6.30

Inquiry: Tell me reported pIC50 for NCc1ccncc1-c1ccc(C(=O)CN2C(=O)NC3(CCC(F)(F)CC3)C2=O)cc1 [Example 6-58] , tested with human TRPM8 (Homo sapiens).
Reply text: > 7.00

Inquiry: Tell me reported pIC50 for Cc1nc(C(=O)CN2C(=O)NC3(CCC(F)(F)CC3)C2=O)n(C)c1-c1cccc(F)c1 [Example 17-6] , tested with human TRPM8 (Homo sapiens).
Reply text: > 8.00

Inquiry: Tell me reported pIC50 for O=C(CN1C(=O)NC2(CCC(F)(F)CC2)C1=O)c1ccc(Oc2ncccc2Cl)cc1 [Example 21-2] , tested with human TRPM8 (Homo sapiens).
Reply text: > 7.00

Inquiry: Tell me reported pIC50 for Cc1ccc2[nH]c(=O)n(-c3ccc(C(=O)CN4C(=O)NC5(CCC(F)(F)CC5)C4=O)cc3)c2n1 [Example 23-2] , tested with human TRPM8 (Homo sapiens).
Reply text: > 7.00

Inquiry: Tell me reported pIC50 for Cc1cc(C(=O)CN2C(=O)NC3(CCC(F)(F)CC3)C2=O)n(C)c1-c1cccc2[nH]ncc12 [Example 16-35] , tested with human TRPM8 (Homo sapiens).
Reply text: > 6.30

----------
Target: human TRPM8 (Homo sapiens)
Assay: Menthol-induced Ca2+ influx in HEK293 cells stably expressing human TRPM8
Settings: 30 microM menthol-induced Ca2+ influx, read-out: IC50 against TRPM8
pIC50: −log10 of the molar value.
Please respond with reported pIC50 for every item in the list.

Inquiry: So what does the record say about pIC50 for `Cc1ncccc1-c1ccc(C(=O)CN2CC3(CCC(F)(F)CC3)OC2=O)cc1` ?
Reply text: > 6.30

Inquiry: So what does the record say about pIC50 for `Cc1ccnnc1-c1ccc(C(=O)CN2C(=O)NC3(CCC(F)(F)CC3)C2=O)cc1` ?
Reply text: > 7.00

Inquiry: So what does the record say about pIC50 for `CN(c1ccccn1)c1ccc(C(=O)CN2C(=O)NC3(CCC(F)(F)CC3)C2=O)cn1` ?
Reply text: > 7.00

Inquiry: So what does the record say about pIC50 for `O=C(CN1C(=O)NC2(CCCCC2)C1=O)c1ccc(Oc2ccccn2)cc1` ?
Reply text: > 7.00

Inquiry: So what does the record say about pIC50 for `Cc1c(C(=O)CN2C(=O)NC3(CCCCC3)C2=O)nn(C)c1-c1ccccc1` ?
Reply text: > 7.00

Inquiry: So what does the record say about pIC50 for `COc1ncccc1-c1ccc(C(=O)CN2C(=O)NC3(CCC(F)(F)CC3)C2=O)cc1` ?
Reply text: > 7.00

Inquiry: So what does the record say about pIC50 for `O=C(CN1C(=O)NC2(CCC(F)(F)CC2)C1=O)c1ccc(-n2cnc3cccnc32)cc1` ?
Reply text: > 8.00

Inquiry: So what does the record say about pIC50 for `Cc1nc(C(=O)CN2C(=O)NC3(CCC(F)(F)CC3)C2=O)n(C)c1-c1ccccc1CO` ?
Reply text: > 7.00

Inquiry: So what does the record say about pIC50 for `Cc1cc(C(=O)CN2C(=O)NC3(CCC(F)(F)CC3)C2=O)n(C)c1-c1cncnc1` ?
Reply text: > 7.00

Inquiry: So what does the record say about pIC50 for Cc1cc(C(=O)CN2C(=O)NC3(CCCCC3)C2=O)c(C)n1-c1cccc(N2CCCC(O)C2)n1 (centres unmarked) ?
Reply text: > 6.30

Inquiry: So what does the record say about pIC50 for `O=C(CN1C(=O)NC2(CCC(F)(F)CC2)C1=O)c1ccc(-n2ncc3ccccc32)cc1` ?
Reply text: > 7.00

Inquiry: So what does the record say about pIC50 for `Cc1nc(C(=O)CN2C(=O)NC3(CCC(F)(F)CC3)C2=O)sc1-c1cccc2c1CNC2=O` ?
Reply text: > 6.30

Inquiry: So what does the record say about pIC50 for `N#Cc1cccnc1-c1ccc(C(=O)CN2C(=O)NC3(CCCCC3)C2=O)cc1` ?
Reply text: > 7.00

Inquiry: So what does the record say about pIC50 for `Cc1cc(C(=O)CN2C(=O)NC3(CCC(F)(F)CC3)C2=O)sc1-c1ccccc1CO` ?
Reply text: > 7.00

Inquiry: So what does the record say about pIC50 for `Cc1cccc(N(C)c2ccc(C(=O)CN3C(=O)NC4(CCCCC4)C3=O)cn2)c1` ?
Reply text: > 7.00

Inquiry: So what does the record say about pIC50 for `COc1ccccc1-c1sc(C(=O)CN2C(=O)NC3(CCC(F)(F)CC3)C2=O)cc1C` ?
Reply text: > 7.00

Inquiry: So what does the record say about pIC50 for `Cc1cc(C(=O)CN2C(=O)NC3(CCC(F)(F)CC3)C2=O)ccc1-c1cc(F)cc(F)c1` ?
Reply text: > 7.00

Inquiry: So what does the record say about pIC50 for `CN(c1cccnc1)c1ccc(C(=O)CN2C(=O)NC3(CCCCC3)C2=O)cn1` ?
Reply text: > 7.00

Inquiry: So what does the record say about pIC50 for `COc1ncccc1-c1cnc(C(=O)CN2C(=O)NC3(CCC(F)(F)CC3)C2=O)cn1` ?
Reply text: > 7.00

Inquiry: So what does the record say about pIC50 for `O=C(CN1C(=O)NC2(CCC(F)(F)CC2)C1=O)c1ccc(-c2ccnc3[nH]ccc23)cc1` ?
Reply text: > 7.00

Inquiry: So what does the record say about pIC50 for `N#Cc1ncccc1-c1ccc(C(=O)CN2CC3(CCC(F)(F)CC3)OC2=O)cc1` ?
Reply text: > 6.30

Inquiry: So what does the record say about pIC50 for `O=C(CN1C(=O)NC2(CCC(F)(F)CC2)C1=O)c1ccc(-c2cccc3cnccc23)cc1` ?
Reply text: > 7.00

Inquiry: So what does the record say about pIC50 for `Cc1cc(C(=O)CN2C(=O)NC3(CCC(F)(F)CC3)C2=O)n(C)c1-c1cccc(Cl)c1` ?
Reply text: > 7.00

Inquiry: So what does the record say about pIC50 for `O=C(CN1C(=O)NC2(CCC(F)(F)CC2)C1=O)c1ccc(-c2ccccc2CO)c(Cl)c1` ?
Reply text: > 7.00

Inquiry: So what does the record say about pIC50 for `Cc1ccsc1-c1ccc(C(=O)CN2C(=O)NC3(CCCCC3)C2=O)cc1` ?
Reply text: > 7.00

Inquiry: So what does the record say about pIC50 for `O=C(CN1C(=O)NC2(CCC(F)(F)CC2)C1=O)c1ccc(-c2cnn3cccnc23)cc1` ?
Reply text: > 7.00

Inquiry: So what does the record say about pIC50 for `Cc1cc(C(=O)CN2C(=O)NC3(CCC(F)(F)CC3)C2=O)n(C)c1-c1ccccc1F` ?
Reply text: > 7.00

Inquiry: So what does the record say about pIC50 for `Cc1c(C(=O)CN2C(=O)NC3(CCC(F)(F)CC3)C2=O)cn(C)c1-c1cccnc1` ?
Reply text: > 6.30

Inquiry: So what does the record say about pIC50 for `O=C(CN1C(=O)NC2(CCC(F)(F)CC2)C1=O)c1ccc(-c2cccc3ccncc23)c(Cl)c1` ?
Reply text: > 7.00

Inquiry: So what does the record say about pIC50 for `O=C(CN1C(=O)NC2(CCC(F)(F)CC2)C1=O)c1ccc(-c2nccnc2CO)cc1` ?
Reply text: > 8.00

Inquiry: So what does the record say about pIC50 for `Cc1cc(C(=O)CN2C(=O)NC3(CCCCC3)C2=O)c(C)n1-c1cccc(OCC2CC2)n1` ?
Reply text: > 6.30

Inquiry: So what does the record say about pIC50 for `O=C(CN1C(=O)NC2(CCC(F)(F)CC2)C1=O)c1ccc(-c2cnc3ccccn23)cc1` ?
Reply text: > 7.00

----------
Target: human TRPM8 (Homo sapiens, UniProt Q7Z2W7)
Sequence (Q7Z2W7 whole entry): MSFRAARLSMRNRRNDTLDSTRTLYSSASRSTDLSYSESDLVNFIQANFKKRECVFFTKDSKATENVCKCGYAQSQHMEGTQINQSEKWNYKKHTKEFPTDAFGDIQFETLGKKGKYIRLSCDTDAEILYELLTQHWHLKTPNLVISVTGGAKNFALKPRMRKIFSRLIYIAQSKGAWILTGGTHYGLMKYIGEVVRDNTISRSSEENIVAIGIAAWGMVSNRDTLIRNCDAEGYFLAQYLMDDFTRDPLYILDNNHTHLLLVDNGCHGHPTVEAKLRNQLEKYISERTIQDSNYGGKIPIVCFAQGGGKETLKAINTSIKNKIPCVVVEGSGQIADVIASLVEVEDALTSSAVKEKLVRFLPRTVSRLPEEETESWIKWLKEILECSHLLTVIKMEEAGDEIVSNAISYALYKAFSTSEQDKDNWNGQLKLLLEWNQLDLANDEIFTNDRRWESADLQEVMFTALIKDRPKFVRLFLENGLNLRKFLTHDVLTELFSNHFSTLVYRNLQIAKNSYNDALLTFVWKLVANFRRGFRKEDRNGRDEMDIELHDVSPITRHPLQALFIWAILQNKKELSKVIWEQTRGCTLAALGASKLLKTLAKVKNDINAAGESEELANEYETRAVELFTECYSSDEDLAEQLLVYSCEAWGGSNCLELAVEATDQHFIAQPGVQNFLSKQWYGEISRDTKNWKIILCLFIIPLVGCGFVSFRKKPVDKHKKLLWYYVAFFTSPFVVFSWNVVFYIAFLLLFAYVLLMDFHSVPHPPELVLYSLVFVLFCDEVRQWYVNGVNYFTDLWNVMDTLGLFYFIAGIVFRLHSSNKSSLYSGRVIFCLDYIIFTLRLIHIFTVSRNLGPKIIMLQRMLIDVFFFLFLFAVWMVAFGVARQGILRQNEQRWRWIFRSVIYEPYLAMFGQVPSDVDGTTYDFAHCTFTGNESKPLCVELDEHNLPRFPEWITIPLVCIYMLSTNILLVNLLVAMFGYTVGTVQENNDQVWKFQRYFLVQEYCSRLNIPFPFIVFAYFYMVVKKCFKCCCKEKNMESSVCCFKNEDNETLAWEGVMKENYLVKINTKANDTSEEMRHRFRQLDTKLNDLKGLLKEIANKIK
Assay: Menthol-induced Ca2+ influx in HEK293 cells stably expressing human TRPM8
Conditions: 30 microM menthol-induced Ca2+ influx, read-out: IC50 against TRPM8
Reported metric: IC50

Inquiry: So what does the record say about IC50 for `Cc1c(C(=O)CN2C(=O)NC3(CCC(F)(F)CC3)C2=O)nn(C)c1-c1cccnc1` ?
Reply text: < 500 nM

Inquiry: So what does the record say about IC50 for `O=C(CN1C(=O)NC2(CCC(F)(F)CC2)C1=O)c1ccc(-c2ncccc2CO)cc1` ?
Reply text: < 100 nM

Inquiry: So what does the record say about IC50 for `Cc1ccc2nc(CO)n(-c3ccc(C(=O)CN4C(=O)NC5(CCC(F)(F)CC5)C4=O)cc3)c2n1` ?
Reply text: < 100 nM

Inquiry: So what does the record say about IC50 for `O=C(CN1C(=O)NC2(CCC(F)(F)CC2)C1=O)c1ccc(Oc2cccnc2)c(F)c1` ?
Reply text: < 100 nM

Inquiry: So what does the record say about IC50 for `O=C(CN1C(=O)NC2(CCC(F)(F)CC2)C1=O)c1ccc(Oc2ccccc2)nc1` ?
Reply text: < 500 nM

Inquiry: So what does the record say about IC50 for `Cc1ccc2nc(CN3CCCCC3)n(-c3ccc(C(=O)CN4C(=O)NC5(CCC(F)(F)CC5)C4=O)cc3)c2n1` ?
Reply text: < 500 nM

Inquiry: So what does the record say about IC50 for `CN(c1cccc(C(F)(F)F)c1)c1ccc(C(=O)CN2C(=O)NC3(CCC(F)(F)CC3)C2=O)cn1` ?
Reply text: < 500 nM

Inquiry: So what does the record say about IC50 for `O=C(CN1C(=O)NC2(CCC(F)(F)CC2)C1=O)c1ccc(-c2ccnc3[nH]ncc23)cc1` ?
Reply text: < 10 nM

Inquiry: So what does the record say about IC50 for `N#Cc1ccccc1Cc1ccc(C(=O)CN2C(=O)NC3(CCC(F)(F)CC3)C2=O)cc1` ?
Reply text: < 500 nM

Inquiry: So what does the record say about IC50 for `Cc1ccc2ncn(-c3ccc(C(=O)CN4C(=O)NC5(CCC(F)(F)CC5)C4=O)cc3)c2n1` ?
Reply text: < 100 nM

Inquiry: So what does the record say about IC50 for `O=C(CN1C(=O)NC2(CCC(F)(F)CC2)C1=O)c1ccc(-n2c(C3CC3)nc3cccnc32)cc1` ?
Reply text: < 500 nM

Inquiry: So what does the record say about IC50 for `Cn1c(-c2ccccc2)cnc1C(=O)CN1C(=O)NC2(CCC(F)(F)CC2)C1=O` ?
Reply text: < 100 nM

Inquiry: So what does the record say about IC50 for `Cc1ccnc(Oc2ccc(C(=O)CN3C(=O)NC4(CCC(F)(F)CC4)C3=O)cc2)n1` ?
Reply text: < 500 nM

Inquiry: So what does the record say about IC50 for `Cc1nc(C(=O)CN2C(=O)NC3(CCC(F)(F)CC3)C2=O)n(C)c1-c1cccc(C#N)c1` ?
Reply text: < 100 nM

Inquiry: So what does the record say about IC50 for `Cc1ccncc1-c1ccc(C(=O)CN2C(=O)NC3(CCCCC3)C2=O)cc1` ?
Reply text: < 100 nM

Inquiry: So what does the record say about IC50 for `NCc1nc2ccccc2n1-c1ccc(C(=O)CN2C(=O)NC3(CCC(F)(F)CC3)C2=O)cc1` ?
Reply text: < 500 nM
